Provide the recorded AC50 for the entries that follow.
Molecular target: Adenosine receptor A3 (Homo sapiens, UniProt P0DMS8); also: assay procedure not described here
Sequence (P0DMS8 whole entry): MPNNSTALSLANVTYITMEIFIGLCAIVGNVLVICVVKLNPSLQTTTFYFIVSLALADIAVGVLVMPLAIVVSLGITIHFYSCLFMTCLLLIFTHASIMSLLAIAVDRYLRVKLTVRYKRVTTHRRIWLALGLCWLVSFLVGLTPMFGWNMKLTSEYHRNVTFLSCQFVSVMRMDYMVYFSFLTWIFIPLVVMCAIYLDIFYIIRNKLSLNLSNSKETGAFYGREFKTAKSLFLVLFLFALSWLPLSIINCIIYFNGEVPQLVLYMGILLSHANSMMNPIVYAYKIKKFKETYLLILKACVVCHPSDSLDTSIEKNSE

Param item = "CCOc1cc([C@@H](CS(C)(=O)=O)N2C(=O)c3cccc(NC(C)=O)c3C2=O)ccc1OC" ; retrieve measured AC50. > 30 µM

Need AC50 of "Cc1cc(C)nc(NS(=O)(=O)c2ccc(N)cc2)n1" , thanks. > 10 µM

So what's the measured AC50 for this one? "C/C=C(/C(=C/C)c1ccc(O)cc1)c1ccc(O)cc1" 7.3 µM

Name the recorded AC50 for CC(Cc1cccc(C(F)(F)F)c1)NCCOC(=O)c1ccccc1 (stereo not given) . 28 µM

Param item = "CC(=O)Nc1ccc(CC(=O)O)cc1" ; retrieve measured AC50. > 30 µM

###

AC50 data for Growth hormone secretagogue receptor type 1 (Homo sapiens) follow.
Where a SMILES comes first, the peptide text is derived from it. [ ]: non-standard residue; d: D form. pGlu = O=C1CC[C@@H](C(=O)O)N1; Thz = O=C(O)[C@@H]1CSCN1

// query AC50 value for entry OC[C@H]1O[C@@H](Oc2cc(O)cc(/C=C/c3ccc(O)cc3)c2)[C@H](O)[C@@H](O)[C@@H]1O [PICEID] > 30 µM

So what does the record say about AC50 for CCC(=O)O[C@]1(C(=O)CCl)[C@@H](C)C[C@H]2[C@@H]3CCC4=CC(=O)C=C[C@]4(C)[C@@]3(F)[C@@H](O)C[C@@]21C [CLOBETASOL PROPIONATE] ? > 30 µM

I am curious: what AC50 value has been reported for Cc1ccccc1N1C(=O)c2cc(S(N)(=O)=O)c(Cl)cc2NC1C (configuration not stated) [METOLAZONE] ? > 10 µM

Value lookup for AC50; key = CCCN(CCC)S(=O)(=O)c1ccc(C(=O)O)cc1 [PROBENECID] > 10 µM

Name the recorded AC50 for CCOC(=O)[C@@H](N)Cc1ccc(-c2cc(O[C@H](c3ccc(Cl)cc3-n3ccc(C)n3)C(F)(F)F)nc(N)n2)cc1 [TELOTRISTAT ETHYL] . 28 µM

Any idea what AC50 was measured for O=C1CC[C@@H](C(=O)N2CSC[C@H]2C(=O)O)N1 [PIDOTIMOD] ([pGlu]-[Thz]-OH) ? > 30 µM

// AC50 lookup, key: CN(C)Cc1nnc2n1-c1ccc(Cl)cc1C(c1ccccc1)=NC2 [ADINAZOLAM] > 10 µM

###

Please consider the recorded AC50 for D(1A) dopamine receptor (Homo sapiens, UniProt P21728) in what follows.

Dear colleague, I am looking for the recorded AC50 of the following compound: "CC1(C)S[C@@H]2[C@H](/N=C/N3CCCCCC3)C(=O)N2[C@H]1C(=O)O" > 30 µM

May I ask what AC50 has been recorded for CC(=O)OCC(=O)[C@@]1(O)CC[C@H]2[C@@H]3CCC4=CC(=O)CC[C@]4(C)[C@H]3[C@@H](O)C[C@@]21C [HYDROCORTISONE ACETATE] ? > 30 µM

Consider the compound CCN(CC)CCCC(C)Nc1c2ccc(Cl)cc2nc2ccc(OC)cc12 (stereo unspecified) and give its measured AC50. 12.3 µM

Reported AC50, compound C[C@@H]1C[C@H]2[C@@H]3C[C@H](F)C4=CC(=O)C=C[C@]4(C)[C@@]3(F)[C@@H](O)C[C@]2(C)[C@@]1(OC(=O)c1ccco1)C(=O)SCF [FLUTICASONE FUROATE] : ____ > 30 µM

Dear colleague, I am looking for the recorded AC50 of the following compound: CC1(CCN2CCCCC2)C(=O)CCc2ccccc21 (stereo unspecified) [NEPINALONE] > 30 µM

For NC[C@H]1CC[C@H](C(=O)Oc2ccc(CCC(=O)O)cc2)CC1 [CETRAXATE] , what is its reported AC50? > 30 µM

Find the recorded AC50 belonging to "O=C(O)CN(CCN(CC(=O)O)CC(=O)O)CCN(CC(=O)O)CC(=O)O" and report it. 8.71 µM

Reported AC50, compound "COc1cccc(C(=O)CCN[C@@H](C)[C@H](O)c2ccccc2)c1" : ____ 16.4 µM

Give its AC50 value. Item: "COC(=O)[C@H]1[C@H]2C[C@@H]3c4[nH]c5cc(OC)ccc5c4CCN3C[C@H]2C[C@@H](OC(=O)c2cc(OC)c(OC)c(OC)c2)[C@@H]1OC" > 30 µM

Fill in the blank: the reported AC50 of "Nc1c(CC(=O)O)cccc1C(=O)c1ccc(Br)cc1" is ____. > 30 µM

I would be grateful if you could share the reported AC50 for C[C@H]1O[C@@H](O[C@H]2CC[C@@]3(C)[C@H](CC[C@@H]4[C@@H]3C[C@@H](O)[C@]3(C)[C@@H](C5=CC(=O)OC5)CC[C@]43O)C2)C[C@H](O)[C@@H]1O[C@H]1C[C@H](O)[C@H](O[C@H]2C[C@H](O)[C@H](O[C@@H]3O[C@H](CO)[C@@H](O)[C@H](O)[C@H]3O)[C@@H](C)O2)[C@@H](C)O1 [DESLANOSIDE] . > 30 µM

Consider the compound COc1ccccc1OC1(C)OC(=O)c2ccccc2O1 (stereo unspecified) and give its measured AC50. > 30 µM

Given the compound "Cc1cc(=O)[nH]c(=S)[nH]1" , what is its reported AC50? > 30 µM

Given the entry "Cc1ccc(C)c(OCCCC(C)(C)C(=O)O)c1" , report its measured AC50. > 30 µM

I am curious: what AC50 value has been reported for CC[N+](C)(CC)CCOC(=O)C(O)(c1ccccc1)C1CCCCC1 (stereo unspecified) ? > 30 µM

I would be grateful if you could share the reported AC50 for "Cc1cc2c(cc1S(N)(=O)=O)S(=O)(=O)CCC2" . > 30 µM

Consider the compound "C[Se]CC[C@H](N)C(=O)O" and give its measured AC50. > 30 µM

Fill in the blank: the reported AC50 of COc1cc(C)c2c(Oc3cccc(C(F)(F)F)c3)c(OC)cc(NC(C)CCCN)c2n1 (stereo unspecified) is ____. 16.4 µM

Reported AC50, compound "C=N[C@@H](C(=O)N[C@@H]1C(=O)N2[C@@H]1SC(C)(C)[C@@H]2C(=O)O)c1ccccc1" : ____ > 30 µM

Would you kindly share the measured AC50 for CC(O)(CS(=O)(=O)c1ccc(F)cc1)C(=O)Nc1ccc(C#N)c(C(F)(F)F)c1 (stereo unspecified) [BICALUTAMIDE] ? > 30 µM

Param item = CC(OCCN1CCCCCC1)(c1ccccc1)c1ccc(Cl)cc1 (stereo unspecified) ; retrieve measured AC50. 6.96 µM

What does the record list as AC50 for "C[C@H](N[C@@H](CCc1ccccc1)C(=O)O)C(=O)N1Cc2ccccc2C[C@H]1C(=O)O" ? > 30 µM

What value of AC50 has been recorded for this entry: "CCC1=C[C@@H]2CN(C1)Cc1c([nH]c3ccccc13)[C@@](C(=O)OC)(c1cc3c(cc1OC)N(C)[C@H]1[C@@](O)(C(=O)OC)[C@H](OC(C)=O)[C@]4(CC)C=CCN5CC[C@]31[C@@H]54)C2" > 30 µM

Report AC50 for CC(=O)O[C@H]1Cc2ccccc2N(C(N)=O)c2ccccc21 [ESLICARBAZEPINE ACETATE] please. > 30 µM

Given the compound CC(=O)NO [ACETOHYDROXAMIC ACID] , what is its reported AC50? > 30 µM

Need AC50 of "CC(=O)[C@H]1CC[C@H]2[C@@H]3C=CC4=CC(=O)CC[C@@]4(C)[C@@H]3CC[C@]12C" , thanks. > 30 µM

What value of AC50 has been recorded for this entry: "O=C(CCC/C=C\C[C@@H]1[C@@H](CC[C@@H](O)CCc2ccccc2)[C@H](O)C[C@@H]1O)OCCCCO[N+](=O)[O-]" > 30 µM

Field request: AC50 | item: "C[C@]12C=CC(=O)C=C1CC[C@H]1[C@@H]3C[C@@H](O)[C@](O)(C(=O)CO)[C@@]3(C)C[C@H](O)[C@@]12F" > 30 µM

Param item = "NC(=O)[C@@H]1CC[C@@H]2CN1C(=O)N2OS(=O)(=O)O" ; retrieve measured AC50. > 30 µM

Find the recorded AC50 belonging to "COc1c2occc2c(OC)c2c(=O)cc(C)oc12" and report it. > 30 µM

# query: AC50 of entry "CC(=O)NCCCCCC(=O)O" > 30 µM
